Entry source: paper PMC11085442

Tested on: H2O2-stimulated PC 12 cell lines
Experiment: Protection against H2O2-induced oxidative damage (CCK-8)
Type: cell-based, rat
Conditions: Dose 20 μM; H2O2-induced oxidative damage, PC 12; H2O2 group 49.69 ± 1.37, control 100; in % (unit assumed)
MEASUREMENT NAME: Cell viability
Hey, just send me the number, nothing else.

As a guide, the following entries are already answered.
COc1cc(/C=C/C(=O)CC(=O)/C=C/c2cc(CN(C)C)c(O)c(OC)c2)ccc1O [Compound 15]
87.82
COc1cc(/C=C/C(=O)CC(=O)/C=C/c2cc(C)c(O)cc2C)cc(CN(C)C)c1O [Compound 12]
79.23
COc1cc(/C=C/C(=O)CC(=O)/C=C/c2ccc(O)cc2C)cc(CN(C)C)c1O [Compound 3a]
86.90
COc1cc(/C=C/C(=O)CC(=O)/C=C/c2ccc(OC)c(OC)c2OC)cc(CN(C)C)c1O [Compound 6a]
100.96
COc1cc(/C=C/C(=O)CC(=O)/C=C/c2ccc(O)c(Cl)c2)cc(CN(C)C)c1O [Compound 7a]
79.65
COc1ccc(/C=C/C(=O)CC(=O)/C=C/c2cc(CN(C)C)c(O)c(OC)c2)cc1O [Compound 11]
96.33
COc1cc(/C=C/C(=O)CC(=O)/C=C/c2ccc(O)cc2F)cc(CN(C)C)c1O [Compound 4a]
86.52
COc1ccc(/C=C/C(=O)CC(=O)/C=C/c2cc(CN(C)C)c(O)c(OC)c2)cc1OC [Compound 5a]
106.17
COc1cc(/C=C/C(=O)CC(=O)/C=C/c2c(OC)cc(O)cc2OC)cc(CN(C)C)c1O [Compound 14]
74.30
COc1cc(/C=C/C(=O)CC(=O)/C=C/c2cc(C)c(O)c(C)c2)cc(CN(C)C)c1O [Compound 8a]
87.62

## Input If you can, please state the reported Cell viability value of COc1cc(/C=C/C(=O)CC(=O)/C=C/c2c(C)cc(O)cc2C)cc(CN(C)C)c1O [Compound 13] .
## Output 80.61

## Input If you can, please state the reported Cell viability value of COc1cc(/C=C/C(=O)CC(=O)/C=C/c2ccc(O)cc2)cc(CN(C)C)c1O [Compound 10] .
## Output 77.80

## Input If you can, please state the reported Cell viability value of COc1cc(O)ccc1/C=C/C(=O)CC(=O)/C=C/c1cc(CN(C)C)c(O)c(OC)c1 [Compound 9a] .
## Output 81.08

## Input If you can, please state the reported Cell viability value of CCOc1cc(/C=C/C(=O)CC(=O)/C=C/c2cc(CN(C)C)c(O)c(OC)c2)ccc1O [Compound 1a] .
## Output 89.36

## Input If you can, please state the reported Cell viability value of COc1cc(/C=C/C(=O)CC(=O)/C=C/c2cc(OC)c(O)c(OC)c2)cc(CN(C)C)c1O [Compound 2a] .
## Output 65.65
